Experiment: Clearance in Sprague-Dawley rat at 2 mg/kg, iv and 2 mg/kg, po
Type: ADME, organism-based
Conditions: in vivo
PROPERTY_NAME: clearance
Write the numeric value and append its unit.

// worked examples, clearance included
{"STRUCTURE_SMILES": "CCCOCCn1c(=O)c(NCCN2CCOCC2)nc2ncc(-c3ccc(OC)nc3)cc21", "clearance": "178 mL/min/kg"}
{"STRUCTURE_SMILES": "CCCOCCn1c(=O)c(NCCN2CCOCC2)nc2ncc(-c3ccc(OC)nc3)nc21", "clearance": "151 mL/min/kg"}
{"STRUCTURE_SMILES": "CCCOCCn1c(=O)c(NCCN2CCOCC2)nc2ccc(-c3ccc(OC)nc3)nc21", "clearance": "67.6 mL/min/kg"}

Give reported clearance value for CCCOCCn1c(=O)c(NCCN2CCOCC2)nc2cnc(-c3ccc(OC)nc3)cc21
33.6 mL/min/kg
